Origin of the recorded values: PubChem BioAssay

Here, each record is paired with measured composite z-score data.
measured-on: E3 ubiquitin-protein ligase XIAP (Homo sapiens) (UniProt P98170)
Sequence (P98170 whole entry, looked up): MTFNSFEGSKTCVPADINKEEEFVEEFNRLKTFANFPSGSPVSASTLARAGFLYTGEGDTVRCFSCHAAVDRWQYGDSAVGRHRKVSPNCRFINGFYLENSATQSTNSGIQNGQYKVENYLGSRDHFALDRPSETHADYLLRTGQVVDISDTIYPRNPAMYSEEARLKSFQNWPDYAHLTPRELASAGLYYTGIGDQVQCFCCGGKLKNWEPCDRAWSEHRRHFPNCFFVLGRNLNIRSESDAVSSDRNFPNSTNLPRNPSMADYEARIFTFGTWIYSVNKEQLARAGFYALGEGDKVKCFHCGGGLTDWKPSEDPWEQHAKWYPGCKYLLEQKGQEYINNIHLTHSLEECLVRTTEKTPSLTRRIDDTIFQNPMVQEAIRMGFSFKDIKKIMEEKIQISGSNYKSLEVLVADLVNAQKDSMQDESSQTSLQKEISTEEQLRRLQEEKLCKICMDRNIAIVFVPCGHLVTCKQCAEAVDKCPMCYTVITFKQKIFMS
test-name: XIAP binders, primary screen, biophysical, small-molecule microarray, fluorescence 635 nm (AID 1181);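 also: score merges 667 nm emission and signal to noise over triplicate slides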
condition-info: small-molecule microarray binding, higher = more signal
Note: the reply should be a number with no unit written.

Specify measured composite z-score for CC(C)C[C@@H]1NC(=O)[C@@H]2C[C@H](C(=O)NCCCCCC[N+](C)(C)C)[C@H](c3ccc(O)cc3)N2C1=O .
-0.0056

Specify measured composite z-score for COc1ccc(C#Cc2ccc3c(c2)[C@]2(C(=O)N3)[C@H](C(=O)NC[C@H](O)c3ccccc3)[C@H]3C(=O)O[C@H](c4ccccc4)[C@H](c4ccccc4)N3[C@@H]2c2ccc(OCCO)cc2)cc1 .
-0.125

Specify measured composite z-score for Cc1ccccc1C(O)C1C=CC2C(=O)N(C)C(=O)C2N1Nc1ccccc1 (centres undefined) .
0.179

Specify measured composite z-score for CCCCC(O)C1C=CC2C(=O)N(C3CCCCC3)C(=O)C2N1Nc1ccc(OC)cc1 (centres undefined) .
0.0617
